Observed IC50 for Acetylcholinesterase (Homo sapiens, UniProt P22303), reported per entry below.
API: value field is a number in µM; no unit string.

These solved cases illustrate the format of a correct answer.
{"ENTRY_SMILES": "CN(Cc1ccccc1)Cc1ccc(NC(=O)Cc2ccc(O)cc2)cc1", "IC50 [µM]": 3.24}
{"ENTRY_SMILES": "CN(Cc1ccccc1)Cc1ccc(NC(=O)Cc2ccccc2)cc1", "IC50 [µM]": 5.8}

Requested read-out IC50, target or system Acetylcholinesterase (Homo sapiens, UniProt P22303), entry `COc1ccc(/C=C/C(=O)Nc2ccc(CN(C)Cc3ccccc3)cc2)cc1`
4.56

Requested read-out IC50, target or system Acetylcholinesterase (Homo sapiens, UniProt P22303), entry `CN(Cc1ccccc1)Cc1ccc(NC(=O)Cc2ccc(O)c(O)c2)cc1`
4.63

Requested read-out IC50, target or system Acetylcholinesterase (Homo sapiens, UniProt P22303), entry `CCN(Cc1ccccc1)Cc1ccc(NC(=O)Cc2ccc(OC)c(O)c2)cc1`
2.76

Requested read-out IC50, target or system Acetylcholinesterase (Homo sapiens, UniProt P22303), entry `COc1ccc(/C=C/C(=O)Nc2ccc(CN(C)Cc3ccccc3)cc2)cc1OC`
2.96

Requested read-out IC50, target or system Acetylcholinesterase (Homo sapiens, UniProt P22303), entry `CCN(Cc1ccccc1)Cc1ccc(NC(=O)Cc2ccc(O)c(O)c2)cc1`
7.26

Requested read-out IC50, target or system Acetylcholinesterase (Homo sapiens, UniProt P22303), entry `CN(Cc1ccccc1)Cc1ccc(NC(=O)/C=C/c2ccc(O)c(O)c2)cc1`
5.42

----------
- ASSAY_METHOD_TEXT: Selectivity index, ratio of IC50 for equine serum BChE to IC50 for electric eel AChE
Let's look at some molecules and their measured Ratio IC50.
API note: the answer field is a bare number with no unit suffix.

These solved cases illustrate the format of a correct answer.
{"ENTRY_SMILES": "CN(Cc1ccccc1)Cc1ccc(NC(=O)/C=C/c2ccc(O)c(O)c2)cc1", "RECORDED_RESULT": 2.1}
{"ENTRY_SMILES": "CN(Cc1ccccc1)Cc1ccc(NC(=O)Cc2ccc(O)cc2)cc1", "RECORDED_RESULT": 2.12}
{"ENTRY_SMILES": "CN(Cc1ccccc1)Cc1ccc(NC(=O)/C=C/c2ccc(O)cc2)cc1", "RECORDED_RESULT": 1.95}
{"ENTRY_SMILES": "COc1ccc(/C=C/C(=O)Nc2ccc(CN(C)Cc3ccccc3)cc2)cc1OC", "RECORDED_RESULT": 1.9}
{"ENTRY_SMILES": "CCN(Cc1ccccc1)Cc1ccc(NC(=O)Cc2ccc(OC)c(OC)c2)cc1", "RECORDED_RESULT": 2.13}
{"ENTRY_SMILES": "COc1ccc(CC(=O)Nc2ccc(CN(C)Cc3ccccc3)cc2)cc1OC", "RECORDED_RESULT": 1.4}
{"ENTRY_SMILES": "CCN(Cc1ccccc1)Cc1ccc(NC(=O)Cc2ccccc2)cc1", "RECORDED_RESULT": 1.5}
{"ENTRY_SMILES": "COc1cc(/C=C/C(=O)Nc2ccc(CN(C)Cc3ccccc3)cc2)ccc1O", "RECORDED_RESULT": 2.2}

Form field: reported Ratio IC50 of `CN(Cc1ccccc1)Cc1ccc(NC(=O)Cc2ccccc2)cc1`
1.63
